System: murine colon 26-L5 carcinoma cells
Assay: Antiproliferative activity against cultured cancer cells (MTT), colon 26-L5
Format: cell-based
Conditions: Mus musculus, average of 4 wells
experimental.readout: IC50 (µg/mL)

Consider the reported IC50 for these compounds:
1. COc1cc2c(cc1O)[C@H](c1ccc(O)c(O)c1)[C@@H](CO)[C@H](CO)C2
36.5
2. COc1cc(C[C@@H](CO)[C@H](CO)Cc2ccc(O)c(OC)c2)ccc1O
60.2

(1) O=c1[nH]cc(F)c(=O)[nH]1 [5-Fluorouracil, reference compound]
(2) COc1cc(C[C@H]2CO[C@H](c3ccc(O)c(O)c3)[C@H]2CO)ccc1O
Prompt line: Could you determine which record has the numerically smaller IC50? Candidates: 1 and 2 Kindly state the label of the option you pick.
Response line: 1
